Record form. Attribute: LD50 at 168 h. Fill in for each entry.
assay: in vivo; settings: mouse, po, single dose p.o., unfed NMRI mice, 7 days, read-out: Toxicity LD50 p.o.

COc1ccc(C(=O)NCC(O)CN(C)c2ccc(Cl)c(Cl)c2)cc1OC (centres unmarked) [Compound 16]
> 6810 mg/kg
CN(CC(O)CNC(=O)c1ccccc1F)c1ccc(Cl)c(Cl)c1 (centres unmarked) [Compound 18]
> 1470 mg/kg
CN(CC(O)CNC(=O)C1CCCCC1)c1ccccc1 (centres unmarked) [Compound 5]
3200 mg/kg
COc1ccc(C(=O)NCC(O)CN(C)c2ccc(F)cc2)cc1OC (centres unmarked) [Compound 15]
> 6810 mg/kg
COc1ccc(C=CC(=O)NCC(O)CN(C)c2ccc(Cl)cc2)cc1OC (centres unmarked) [Compound 10]
> 6810 mg/kg
CN(CC(O)CNC(=O)C1CCCCC1)c1ccc(F)cc1 (centres unmarked) [Compound 6]
> 1470 mg/kg

The following compounds each have a reported value; give each one's LD50 at 168 h.
1. CCCN(CC(O)CNC(=O)c1ccc(OC)c(OC)c1)c1ccc(Cl)cc1 (centres unmarked) [Compound 17]
2. CCCCCC(=O)NCC(O)CN(C)c1ccc(F)cc1 (centres unmarked) [Compound 2]

**Result**
> 6810 mg/kg
4320 mg/kg

src = patent US4191770A
